Tested on: PLC5 cells (a hepatocellular carcinoma cell line)
Test: Cytotoxicity, MTT cell viability assay
Assay type: cell-based
Conditions: 72 h exposure
Provide the reported IC50 of each item.
Expressed in nM, but write only the number.

// query Look up and report measured IC50 for this entry: "Cc1ccc(NC(=O)Nc2cc(C(F)(F)F)cc(C(F)(F)F)c2)cc1Oc1ccc(C#N)cc1"
// result 230

// query Look up and report measured IC50 for this entry: "N#Cc1ccc(Oc2ccc3c(c2)OCCN3C(=O)Nc2cccc(C(F)(F)F)c2)cc1"
// result 2510

// query Look up and report measured IC50 for this entry: "C#Cc1cccc(NC(=O)Nc2cc(Oc3ccc(C#N)cc3)ccc2F)c1"
// result 1790

// query Look up and report measured IC50 for this entry: "N#Cc1ccc(Oc2cc(NC(=O)Nc3cccc(C(F)(F)F)c3)ccc2Cl)cc1Cl"
// result 1490

// query Look up and report measured IC50 for this entry: "N#CCc1ccc(Oc2ccc(NC(=O)Nc3cc(C(F)(F)F)cc(C(F)(F)F)c3)cc2)cc1"
// result 410

// query Look up and report measured IC50 for this entry: "N#Cc1ccc(Oc2cc(NC(=O)Nc3cc(C(F)(F)F)cc(C(F)(F)F)c3)ccc2Cl)cn1"
// result 560

// query Look up and report measured IC50 for this entry: "Cc1cc(Oc2cc(NC(=O)Nc3ccc(C)c(Oc4ccc(C#N)c(C)c4)c3)ccc2C)ccc1C#N"
// result 140

// query Look up and report measured IC50 for this entry: "N#CCc1ccc(Oc2ccc(NC(=O)Nc3ccc(F)c(C(F)(F)F)c3)cc2)cc1"
// result 1070

// query Look up and report measured IC50 for this entry: "N#Cc1ccc(Oc2cc(NC(=O)Nc3ccc(Cl)c(C(F)(F)F)c3)ccc2Cl)cc1"
// result 310

// query Look up and report measured IC50 for this entry: "N#Cc1ccc(Oc2ccc(Cl)c(NC(=O)Nc3ccc(Cl)c(C(F)(F)F)c3)c2)cc1"
// result 450

// query Look up and report measured IC50 for this entry: "N#Cc1ccc(Oc2ccc3c(c2)N(C(=O)Nc2ccc(Cl)c(C(F)(F)F)c2)CCO3)cc1"
// result 1760

// query Look up and report measured IC50 for this entry: "N#CCc1ccc(NC(=O)Nc2cc(Oc3ccc(C#N)cc3)ccc2F)cc1"
// result 2590

// query Look up and report measured IC50 for this entry: "N#Cc1ccc(Oc2ccc3cccc(NC(=O)Nc4ccc(Cl)c(C(F)(F)F)c4)c3c2)cc1Cl"
// result 2070
